method: activity coefficient (dimensionless); of the first substance listed, at infinite dilution; xn = mol fraction of the nth substance listed
measurement-conditions: 388.15 K; 101 kPa; Liquid; Chromatography; x1 = 0
# if value of activity coefficient reaches 9, tag Satisfied; if it stays below, tag Not satisfied

Decide: is the reported value of activity coefficient for C1COCCO1 [1,4-dioxane] + CCCCn1cc[n+](C)c1.CS(=O)(=O)[O-] equal to or greater than 9?
Not satisfied

Decide: is the reported value of activity coefficient for C=CCCCCCCCC [1-decene] + CCCCn1cc[n+](C)c1.CS(=O)(=O)[O-] equal to or greater than 9?
Satisfied

Decide: is the reported value of activity coefficient for C1=CCCCC1 [cyclohexene] + CCCCn1cc[n+](C)c1.CS(=O)(=O)[O-] equal to or greater than 9?
Satisfied

Decide: is the reported value of activity coefficient for CCc1ccccc1 [ethylbenzene] + CCCCn1cc[n+](C)c1.[Cl-] equal to or greater than 9?
Satisfied

Decide: is the reported value of activity coefficient for CCCC(=O)OC [methyl butanoate] + CCCCn1cc[n+](C)c1.CS(=O)(=O)[O-] equal to or greater than 9?
Not satisfied

Decide: is the reported value of activity coefficient for CCC(=O)CC [pentan-3-one] + CCCCn1cc[n+](C)c1.[Cl-] equal to or greater than 9?
Not satisfied

Decide: is the reported value of activity coefficient for c1ccncc1 [pyridine] + CCCCn1cc[n+](C)c1.[Cl-] equal to or greater than 9?
Not satisfied

Decide: is the reported value of activity coefficient for C#CCCC [1-pentyne] + CCCCn1cc[n+](C)c1.CS(=O)(=O)[O-] equal to or greater than 9?
Not satisfied

----------
method: activity coefficient (dimensionless); of the first substance listed, at infinite dilution; xn = mol fraction of the nth substance listed
measurement-conditions: 358.15 K; 101 kPa; Liquid; Chromatography; x1 = 0
measure-name: activity coefficient
Please reply with the number alone, leaving off any unit.

Record COC(C)=O [methyl ethanoate] + CCCCn1cc[n+](C)c1.[Cl-] , field activity coefficient: 4.82

Record CC(C)=O [acetone] + CCCCn1cc[n+](C)c1.CS(=O)(=O)[O-] , field activity coefficient: 2.06

Record CC(C)OC(C)C [diisopropyl ether] + CCCCn1cc[n+](C)c1.[Cl-] , field activity coefficient: 78.5

Record C=CCCCCCC [oct-1-ene] + CCCCn1cc[n+](C)c1.CS(=O)(=O)[O-] , field activity coefficient: 88.1

Record C#CCCCCC [1-heptyne] + CCCCn1cc[n+](C)c1.[Cl-] , field activity coefficient: 11.6

Record C1CCCCCC1 [cycloheptane] + CCCCn1cc[n+](C)c1.CS(=O)(=O)[O-] , field activity coefficient: 44.2

Record CCOCC [diethyl ether] + CCCCn1cc[n+](C)c1.COP(=O)([O-])OC , field activity coefficient: 6.21

Record CCOC(C)(C)C [2-ethoxy-2-methylpropane] + CCCCn1cc[n+](C)c1.CS(=O)(=O)[O-] , field activity coefficient: 35.3

Record CCOCC [diethyl ether] + CCCCn1cc[n+](C)c1.CS(=O)(=O)[O-] , field activity coefficient: 14.7

Record CCCCCCCCC [nonane] + CCCCn1cc[n+](C)c1.[Cl-] , field activity coefficient: 476

Record C#CCCCCCC [1-octyne] + CCCCn1cc[n+](C)c1.[Cl-] , field activity coefficient: 18.3

Record c1ccccc1 [benzene] + CCCCn1cc[n+](C)c1.COP(=O)([O-])OC , field activity coefficient: 2.33

Record COC(C)(C)C [2-methoxy-2-methylpropane] + CCCCn1cc[n+](C)c1.COP(=O)([O-])OC , field activity coefficient: 7.17

Record Cc1cccc(C)c1 [1,3-dimethylbenzene] + CCCCn1cc[n+](C)c1.CS(=O)(=O)[O-] , field activity coefficient: 9.27

Record C#CCCCCCC [1-octyne] + CCCCn1cc[n+](C)c1.COP(=O)([O-])OC , field activity coefficient: 6.04

Record Cc1cccc(C)c1 [1,3-dimethylbenzene] + CCCCn1cc[n+](C)c1.COP(=O)([O-])OC , field activity coefficient: 6.49

Record CCCC(=O)OC [methyl butanoate] + CCCCn1cc[n+](C)c1.COP(=O)([O-])OC , field activity coefficient: 4.93

Record Cc1ccccc1C [1,2-dimethylbenzene] + CCCCn1cc[n+](C)c1.[Cl-] , field activity coefficient: 11.6

Record CCC(=O)CC [pentan-3-one] + CCCCn1cc[n+](C)c1.[Cl-] , field activity coefficient: 7.6

----------
method: activity coefficient (dimensionless); of the first substance listed, at infinite dilution; xn = mol fraction of the nth substance listed
measurement-conditions: 368.15 K; 101 kPa; Liquid; Chromatography; x1 = 0
Binarize activity coefficient at 8; below is satisfied, at or above is not satisfied.

Confirm or reject: activity coefficient of CCCOCCC [dipropyl ether] + CCCCn1cc[n+](C)c1.CS(=O)(=O)[O-] lies strictly below 8
not satisfied

Confirm or reject: activity coefficient of C1CCCCCCC1 [cyclooctane] + CCCCn1cc[n+](C)c1.CS(=O)(=O)[O-] lies strictly below 8
not satisfied

Confirm or reject: activity coefficient of CCCCCCCCCC [decane] + CCCCn1cc[n+](C)c1.[Cl-] lies strictly below 8
not satisfied

Confirm or reject: activity coefficient of Cc1ccc(C)cc1 [1,4-dimethylbenzene] + CCCCn1cc[n+](C)c1.[Cl-] lies strictly below 8
not satisfied

Confirm or reject: activity coefficient of C1COCCO1 [1,4-dioxane] + CCCCn1cc[n+](C)c1.CS(=O)(=O)[O-] lies strictly below 8
satisfied

Confirm or reject: activity coefficient of CC(C)OC(C)C [diisopropyl ether] + CCCCn1cc[n+](C)c1.COP(=O)([O-])OC lies strictly below 8
not satisfied

Confirm or reject: activity coefficient of CCCC(C)=O [pentan-2-one] + CCCCn1cc[n+](C)c1.[Cl-] lies strictly below 8
satisfied

Confirm or reject: activity coefficient of CCOC(C)(C)C [2-ethoxy-2-methylpropane] + CCCCn1cc[n+](C)c1.COP(=O)([O-])OC lies strictly below 8
not satisfied

Confirm or reject: activity coefficient of C#CCCCCC [1-heptyne] + CCCCn1cc[n+](C)c1.COP(=O)([O-])OC lies strictly below 8
satisfied

Confirm or reject: activity coefficient of CCC[N+](=O)[O-] [1-nitropropane] + CCCCn1cc[n+](C)c1.CS(=O)(=O)[O-] lies strictly below 8
satisfied

Confirm or reject: activity coefficient of CC(C)OC(C)C [diisopropyl ether] + CCCCn1cc[n+](C)c1.[Cl-] lies strictly below 8
not satisfied

Confirm or reject: activity coefficient of CCCOCCC [dipropyl ether] + CCCCn1cc[n+](C)c1.COP(=O)([O-])OC lies strictly below 8
not satisfied

Confirm or reject: activity coefficient of CCCCCCCC [octane] + CCCCn1cc[n+](C)c1.COP(=O)([O-])OC lies strictly below 8
not satisfied

Confirm or reject: activity coefficient of CCC(=O)OC [methyl propanoate] + CCCCn1cc[n+](C)c1.COP(=O)([O-])OC lies strictly below 8
satisfied

Confirm or reject: activity coefficient of C=C(C)c1ccccc1 [(1-methylethenyl)benzene] + CCCCn1cc[n+](C)c1.[Cl-] lies strictly below 8
not satisfied

Confirm or reject: activity coefficient of Cc1cccc(C)c1 [1,3-dimethylbenzene] + CCCCn1cc[n+](C)c1.COP(=O)([O-])OC lies strictly below 8
satisfied

Confirm or reject: activity coefficient of c1ccncc1 [pyridine] + CCCCn1cc[n+](C)c1.[Cl-] lies strictly below 8
satisfied

Confirm or reject: activity coefficient of C#CCCCCC [1-heptyne] + CCCCn1cc[n+](C)c1.CS(=O)(=O)[O-] lies strictly below 8
not satisfied

----------
method: activity coefficient (dimensionless); of the first substance listed, at infinite dilution; xn = mol fraction of the nth substance listed
measurement-conditions: 358.15 K; 101 kPa; Liquid; Chromatography; x1 = 0
measure-name: activity coefficient
Please reply with the number alone, leaving off any unit.

Record C#CCCCC [1-hexyne] + CCCCn1cc[n+](C)c1.COP(=O)([O-])OC , field activity coefficient: 3.01

Record C1CCOC1 [tetrahydrofuran] + CCCCn1cc[n+](C)c1.COP(=O)([O-])OC , field activity coefficient: 2.79

Record CC(C)=O [acetone] + CCCCn1cc[n+](C)c1.[Cl-] , field activity coefficient: 3.05

Record CCc1ccccc1 [ethylbenzene] + CCCCn1cc[n+](C)c1.[Cl-] , field activity coefficient: 13.2

Record Cc1ccccc1C [1,2-dimethylbenzene] + CCCCn1cc[n+](C)c1.COP(=O)([O-])OC , field activity coefficient: 5.54

----------
method: activity coefficient (dimensionless); of the first substance listed, at infinite dilution; xn = mol fraction of the nth substance listed
measurement-conditions: 428.15 K; 101 kPa; Liquid; Chromatography; x1 = 0
For each of the compounds below, state its activity coefficient.
Please reply with the number alone, leaving off any unit.

Record CCC(C)O (stereo not given) [butan-2-ol] + CCCCn1cc[n+](C)c1.COP(=O)([O-])OC , field activity coefficient: 0.451

Record CC(C)O [propan-2-ol] + CCCCn1cc[n+](C)c1.CS(=O)(=O)[O-] , field activity coefficient: 0.976

Record CCCO [propan-1-ol] + CCCCn1cc[n+](C)c1.COP(=O)([O-])OC , field activity coefficient: 0.264

Record CC(C)O [propan-2-ol] + CCCCn1cc[n+](C)c1.[Cl-] , field activity coefficient: 0.668

Record CO [methanol] + CCCCn1cc[n+](C)c1.COP(=O)([O-])OC , field activity coefficient: 0.125

These measurements were taken from the NIST ThermoML archive (doi:10.1016/j.jct.2015.07.042).
